experiment: Oral bioavailability in dog; format: ADME, organism-based, Canis lupus familiaris; details: in vivo
Measured Endpoint: bioavailability (%)

1: O=C(O)C[C@H]1CC[C@@H](Oc2ccc(NC(=O)c3nnc(Nc4ccc(F)c(F)c4)o3)cn2)CC1
2: O=C(Nc1ccc(O[C@H]2CC[C@@H](C(=O)O)CC2)nc1F)c1nnc(Nc2cc(F)c(F)cc2F)o1
3: O=C(Nc1ccc(O[C@H]2CC[C@@H](C(=O)O)CC2)cc1)c1nnc(Nc2cc(F)c(F)cc2F)o1
QUERY: Output the entries ranked by bioavailability from maximum down to minimum. Return value: ordered labels per request.
RESULT: 2, 1, 3
(2: 61%, 1: 35%, 3: 23%)

====

assay: Apparent permeability in human Caco2 cells assessed as permeability from apical to basolateral side; assay type: ADME, cell-based; conditions: Caco-2
Measured Endpoint: Papp A→B (×10⁻⁶ cm/s)
// return numeric value only (unit: ×10⁻⁶ cm/s, not printed)

QUERY: Fill blank: measured Papp A→B of the molecule O=C(Nc1ccc(O[C@H]2CC[C@@H](C(=O)O)CC2)cc1F)c1nnc(Nc2cc(F)c(F)cc2F)o1 is ____.
RESULT: 33

====

test: Oral bioavailability in rat; format: ADME, organism-based; conditions: in vivo
Measured Endpoint: bioavailability (%)

Below, each entry is followed by its recorded bioavailability result.
>>> measured("O=C(O)C[C@H]1CC[C@@H](Oc2ccc(NC(=O)c3nnc(Nc4ccc(F)c(F)c4)o3)cn2)CC1")
82
>>> measured("O=C(Nc1ccc(O[C@H]2CC[C@@H](C(=O)O)CC2)cc1)c1nnc(Nc2cc(F)c(F)cc2F)o1")
115
>>> measured("O=C(Nc1ccc(O[C@H]2CC[C@@H](C(=O)O)CC2)cc1F)c1nnc(Nc2cc(F)c(F)cc2F)o1")
85

1: O=C(Nc1ccc(O[C@H]2CC[C@@H](C(=O)O)CC2)nc1)c1nnc(Nc2ccc(F)c(F)c2)o1
2: O=C(Nc1ccc(O[C@H]2CC[C@@H](C(=O)O)CC2)nc1F)c1nnc(Nc2cc(F)c(F)cc2F)o1
QUERY: Exercise: compare 1 and 2 ; which one has the greater bioavailability? Refer to your chosen item by its label in the answer.
RESULT: 2
(2: 100%, 1: 33%)

====

molecular target: Voltage-gated inwardly rectifying potassium channel KCNH2 (Homo sapiens, UniProt Q12809)
Sequence (Q12809 whole entry): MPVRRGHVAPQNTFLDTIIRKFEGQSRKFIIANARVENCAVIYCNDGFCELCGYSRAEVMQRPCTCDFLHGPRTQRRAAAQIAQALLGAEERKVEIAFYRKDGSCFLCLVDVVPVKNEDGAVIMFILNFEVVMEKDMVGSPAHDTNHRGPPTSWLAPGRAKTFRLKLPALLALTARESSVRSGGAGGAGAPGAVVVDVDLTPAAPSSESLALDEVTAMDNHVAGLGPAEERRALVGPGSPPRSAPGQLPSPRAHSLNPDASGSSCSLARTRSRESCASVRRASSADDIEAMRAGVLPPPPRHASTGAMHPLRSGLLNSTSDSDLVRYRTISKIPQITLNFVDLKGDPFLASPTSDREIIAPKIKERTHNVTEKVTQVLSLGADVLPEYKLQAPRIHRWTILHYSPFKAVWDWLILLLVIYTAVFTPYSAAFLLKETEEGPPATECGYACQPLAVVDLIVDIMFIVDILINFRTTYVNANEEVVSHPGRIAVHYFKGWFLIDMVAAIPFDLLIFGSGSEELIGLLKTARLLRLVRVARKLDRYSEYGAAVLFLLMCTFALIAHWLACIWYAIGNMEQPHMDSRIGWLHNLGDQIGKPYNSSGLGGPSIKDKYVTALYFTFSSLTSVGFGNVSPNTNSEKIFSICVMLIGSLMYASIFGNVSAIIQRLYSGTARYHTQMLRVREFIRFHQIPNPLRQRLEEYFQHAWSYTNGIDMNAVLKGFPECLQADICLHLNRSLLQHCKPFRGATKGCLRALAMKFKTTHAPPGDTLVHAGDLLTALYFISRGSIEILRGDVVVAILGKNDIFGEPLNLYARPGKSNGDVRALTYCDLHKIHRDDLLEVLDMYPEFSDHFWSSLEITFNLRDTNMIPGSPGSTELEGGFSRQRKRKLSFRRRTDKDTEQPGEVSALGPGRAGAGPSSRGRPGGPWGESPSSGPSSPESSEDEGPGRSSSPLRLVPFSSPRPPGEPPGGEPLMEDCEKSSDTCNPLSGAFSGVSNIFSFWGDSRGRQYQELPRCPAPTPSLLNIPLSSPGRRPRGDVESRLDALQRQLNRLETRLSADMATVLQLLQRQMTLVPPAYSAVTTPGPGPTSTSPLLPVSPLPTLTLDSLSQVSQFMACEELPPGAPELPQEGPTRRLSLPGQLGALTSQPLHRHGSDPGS
pIC50: −log10 of the molar value.
Measured Endpoint: pIC50

QUERY: What value of measured pIC50 is listed for O=C(O)C[C@H]1CC[C@@H](Oc2ccc(NC(=O)c3nnc(Nc4ccc(F)c(F)c4)o3)cn2)CC1 ?
RESULT: < 4.52

====

test: Clearance in dog; type: ADME, organism-based, Canis lupus familiaris; conditions: in vivo
Measured Endpoint: clearance (mL/min/kg)

>>> measured("O=C(O)C[C@H]1CC[C@@H](Oc2ccc(NC(=O)c3nnc(Nc4ccc(F)c(F)c4)o3)cn2)CC1")
2.3
>>> measured("O=C(Nc1ccc(O[C@H]2CC[C@@H](C(=O)O)CC2)nc1F)c1nnc(Nc2ccc(F)c(F)c2)o1")
5.1
>>> measured("O=C(Nc1ccc(O[C@H]2CC[C@@H](C(=O)O)CC2)cc1F)c1nnc(Nc2cc(F)c(F)cc2F)o1")
6.5
>>> measured("O=C(Nc1ccc(O[C@H]2CC[C@@H](C(=O)O)CC2)nc1)c1nnc(Nc2ccc(F)c(F)c2)o1")
4.7

a: O=C(Nc1ccc(O[C@H]2CC[C@@H](C(=O)O)CC2)nc1F)c1nnc(Nc2cc(F)c(F)cc2F)o1
b: O=C(Nc1ccc(O[C@H]2CC[C@@H](C(=O)O)CC2)cc1)c1nnc(Nc2cc(F)c(F)cc2F)o1
QUERY: Given a and given b , which shows the smaller recorded clearance? Identify your selection by its label.
RESULT: a
(a: 4.6 mL/min/kg, b: 11 mL/min/kg)

====

biological target: UniProt:O75907; assay: Inhibition of human DGAT1
pIC50: −log10 of the molar value.
Measured Endpoint: pIC50

These recorded examples may help you get a feel for the data.
>>> measured("O=C(Nc1ccc(O[C@H]2CC[C@@H](C(=O)O)CC2)cc1)c1nnc(Nc2ccc(F)cc2)o1")
8.30
>>> measured("O=C(Nc1ccc(O[C@H]2CC[C@@H](C(=O)O)CC2)cc1)c1nnc(Nc2ccc(F)c(F)c2)o1")
8.40

P: O=C(Nc1ccc(O[C@H]2CC[C@@H](C(=O)O)CC2)nc1)c1nnc(Nc2ccc(F)c(F)c2)o1
Q: O=C(Nc1ccc(O[C@H]2CC[C@@H](C(=O)O)CC2)nc1F)c1nnc(Nc2ccc(F)c(F)c2)o1
QUERY: Which has the higher pIC50, P or Q ? Indicate which entry you chose by stating its label.
RESULT: Q
(Q: 8.52, P: 8.30)

I: O=C(Nc1ccc(O[C@H]2CC[C@H](C(=O)O)CC2)cc1F)c1nnc(Nc2cc(F)c(F)cc2F)o1
II: O=C(Nc1ccc(O[C@H]2CC[C@@H](C(=O)O)CC2)cc1F)c1nnc(Nc2cc(F)c(F)cc2F)o1
III: O=C(O)C[C@H]1CC[C@@H](Oc2ccc(NC(=O)c3nnc(Nc4ccc(F)c(F)c4)o3)cn2)CC1
QUERY: Order the records, beginning with the lowest pIC50 and ending with the highest. Show the ranking through the labels, in the order asked for.
RESULT: I, III, II

I: N#Cc1ccc(Nc2nnc(C(=O)Nc3ccc(O[C@H]4CC[C@@H](C(=O)O)CC4)cc3)o2)cc1
II: O=C(Nc1ccc(O[C@H]2CC[C@@H](C(=O)O)CC2)nc1F)c1nnc(Nc2cc(F)c(F)cc2F)o1
QUERY: Select the item with the higher value of pIC50 from the options I and II listed. Give the label of your selection.
RESULT: II

====

target: Diacylglycerol O-acyltransferase 1 (Homo sapiens, UniProt O75907); test: Inhibition of DGAT1 in human HuTu80 cells assessed as reduction in triglyceride levels; assay type: cell-based
Sequence (O75907 whole entry): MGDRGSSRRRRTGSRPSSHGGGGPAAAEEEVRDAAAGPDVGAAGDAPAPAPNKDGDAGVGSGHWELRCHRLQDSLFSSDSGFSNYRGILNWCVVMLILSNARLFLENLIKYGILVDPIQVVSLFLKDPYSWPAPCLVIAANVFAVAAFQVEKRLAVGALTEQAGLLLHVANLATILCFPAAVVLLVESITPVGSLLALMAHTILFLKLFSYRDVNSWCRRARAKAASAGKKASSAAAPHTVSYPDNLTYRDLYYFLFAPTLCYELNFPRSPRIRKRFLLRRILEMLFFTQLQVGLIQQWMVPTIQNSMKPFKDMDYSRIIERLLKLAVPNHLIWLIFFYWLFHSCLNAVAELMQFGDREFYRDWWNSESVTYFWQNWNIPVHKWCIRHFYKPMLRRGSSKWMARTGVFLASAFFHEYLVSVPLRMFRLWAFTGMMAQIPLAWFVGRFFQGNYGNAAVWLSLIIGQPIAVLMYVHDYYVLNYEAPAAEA
Measured Endpoint: IC50 (nM)
Return type: number; implicit unit nM.

QUERY: Query IC50 on Diacylglycerol O-acyltransferase 1 (Homo sapiens, UniProt O75907) for O=C(O)C[C@H]1CC[C@@H](Oc2ccc(NC(=O)c3nnc(Nc4ccc(F)c(F)c4)o3)cn2)CC1
RESULT: 4

====

assay: Thermodynamic solubility of the compound after 24 hrs at pH 7.4; type: physicochemical; conditions: buffer, read-out: Therm_solubility
Measured Endpoint: solubility thermodynamic at 24 h (µM)

Sample records with solubility thermodynamic at 24 h:
>>> measured("O=C(Nc1ccc(O[C@H]2CC[C@@H](C(=O)O)CC2)cc1)c1nnc(Nc2ccc(F)cc2)o1")
5
>>> measured("O=C(O)c1cccc(Oc2ccc(NC(=O)c3nnc(Nc4ccc(F)c(F)c4)o3)cc2)c1")
6
>>> measured("O=C(O)C[C@H]1CC[C@@H](Oc2ccc(NC(=O)c3nnc(Nc4ccc(F)c(F)c4)o3)cn2)CC1")
4

I: O=C(Nc1ccc(O[C@H]2CC[C@@H](C(=O)O)CC2)cc1F)c1nnc(Nc2cc(F)c(F)cc2F)o1
II: O=C(Nc1ccc(O[C@H]2CC[C@@H](C(=O)O)CC2)cc1)c1nnc(Nc2ccc(F)c(F)c2)o1
III: O=C(Nc1ccc(O[C@H]2CC[C@H](C(=O)O)CC2)cc1)c1nnc(Nc2cc(F)c(F)cc2F)o1
IV: O=C(Nc1ccc(O[C@H]2CC[C@@H](C(=O)O)CC2)cc1)c1nnc(Nc2cc(F)c(F)cc2F)o1
V: O=C(Nc1cnc(O[C@H]2CC[C@@H](C(=O)O)CC2)cc1F)c1nnc(Nc2cc(F)c(F)cc2F)o1
QUERY: Put the items in sequence by solubility thermodynamic at 24 h, from largest down. // format: requested-order list of labels
RESULT: V, I, IV, III, II
(V: 240 µM, I: 69 µM, IV: 43 µM, III: 27 µM, II: 3 µM)

====

target: Cytochrome P450 2D6 (Homo sapiens)
Sequence (P10635 whole entry): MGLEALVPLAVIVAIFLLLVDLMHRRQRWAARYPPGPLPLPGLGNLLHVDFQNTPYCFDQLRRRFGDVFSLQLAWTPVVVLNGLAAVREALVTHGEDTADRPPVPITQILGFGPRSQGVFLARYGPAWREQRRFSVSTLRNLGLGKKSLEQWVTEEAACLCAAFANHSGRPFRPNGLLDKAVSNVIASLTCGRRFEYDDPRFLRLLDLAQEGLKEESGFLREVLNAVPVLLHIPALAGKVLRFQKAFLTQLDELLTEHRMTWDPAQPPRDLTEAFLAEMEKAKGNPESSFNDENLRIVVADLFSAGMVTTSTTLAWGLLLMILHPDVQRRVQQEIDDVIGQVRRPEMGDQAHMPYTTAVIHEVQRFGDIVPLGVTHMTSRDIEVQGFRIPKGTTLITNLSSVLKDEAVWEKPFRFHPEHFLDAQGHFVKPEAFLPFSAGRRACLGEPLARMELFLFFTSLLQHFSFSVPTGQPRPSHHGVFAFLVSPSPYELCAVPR
pIC50: −log10 of the molar value.
Measured Endpoint: pIC50

QUERY: What measured pIC50 goes with O=C(O)C[C@H]1CC[C@@H](Oc2ccc(NC(=O)c3nnc(Nc4ccc(F)c(F)c4)o3)cn2)CC1 ?
RESULT: < 5.00

====

biological target: Diacylglycerol O-acyltransferase 2 (Homo sapiens)
Sequence (Q96PD7 whole entry): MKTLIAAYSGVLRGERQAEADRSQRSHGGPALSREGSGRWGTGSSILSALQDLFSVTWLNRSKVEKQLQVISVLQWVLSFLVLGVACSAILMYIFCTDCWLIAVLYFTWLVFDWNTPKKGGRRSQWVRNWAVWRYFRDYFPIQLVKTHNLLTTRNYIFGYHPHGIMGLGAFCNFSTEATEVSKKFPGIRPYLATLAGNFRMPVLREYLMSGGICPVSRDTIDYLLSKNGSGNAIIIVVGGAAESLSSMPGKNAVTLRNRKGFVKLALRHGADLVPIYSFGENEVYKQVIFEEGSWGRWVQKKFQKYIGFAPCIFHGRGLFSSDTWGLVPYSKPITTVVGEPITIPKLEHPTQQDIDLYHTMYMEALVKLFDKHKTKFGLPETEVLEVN
Measured Endpoint: pIC50
To interpret pIC50, take it as minus log10 of a concentration measured in moles per litre.

QUERY: Param readout = pIC50; param system = Diacylglycerol O-acyltransferase 2 (Homo sapiens); param query = O=C(O)C[C@H]1CC[C@@H](Oc2ccc(NC(=O)c3nnc(Nc4ccc(F)c(F)c4)o3)cn2)CC1 ; response: value
RESULT: 4.55

====

test: Lipophilicity, logD of the compound; type: physicochemical; conditions: octanol/water
Measured Endpoint: logD

Please review the following examples before continuing.
>>> measured("O=C(O)c1ccc(Oc2ccc(NC(=O)c3nnc(Nc4ccc(F)c(F)c4)o3)cn2)cc1")
1.4
>>> measured("O=C(Nc1ccc(O[C@H]2CC[C@@H](C(=O)O)CC2)c(F)c1)c1nnc(Nc2cc(F)c(F)cc2F)o1")
2.3
>>> measured("O=C(Nc1ccc(O[C@H]2CC[C@H](C(=O)O)CC2)cc1)c1nnc(Nc2cc(F)c(F)cc2F)o1")
1.9
>>> measured("O=C(Nc1ccc(O[C@H]2CC[C@@H](C(=O)O)CC2)cc1)c1nnc(Nc2ccc(F)cc2)o1")
1.2

P: O=C(O)C[C@H]1CC[C@@H](Oc2ccc(NC(=O)c3nnc(Nc4ccc(F)c(F)c4)o3)cn2)CC1
Q: N#Cc1ccc(Nc2nnc(C(=O)Nc3ccc(O[C@H]4CC[C@@H](C(=O)O)CC4)cc3)o2)cc1
QUERY: Could you tell me which of P and Q has the lower logD reading? Answer with the label corresponding to your selection.
RESULT: Q
(Q: 1.4, P: 2.2)
